Target: xanthine oxidase (Homo sapiens, UniProt P47989)
Sequence (P47989 whole entry, species assumed): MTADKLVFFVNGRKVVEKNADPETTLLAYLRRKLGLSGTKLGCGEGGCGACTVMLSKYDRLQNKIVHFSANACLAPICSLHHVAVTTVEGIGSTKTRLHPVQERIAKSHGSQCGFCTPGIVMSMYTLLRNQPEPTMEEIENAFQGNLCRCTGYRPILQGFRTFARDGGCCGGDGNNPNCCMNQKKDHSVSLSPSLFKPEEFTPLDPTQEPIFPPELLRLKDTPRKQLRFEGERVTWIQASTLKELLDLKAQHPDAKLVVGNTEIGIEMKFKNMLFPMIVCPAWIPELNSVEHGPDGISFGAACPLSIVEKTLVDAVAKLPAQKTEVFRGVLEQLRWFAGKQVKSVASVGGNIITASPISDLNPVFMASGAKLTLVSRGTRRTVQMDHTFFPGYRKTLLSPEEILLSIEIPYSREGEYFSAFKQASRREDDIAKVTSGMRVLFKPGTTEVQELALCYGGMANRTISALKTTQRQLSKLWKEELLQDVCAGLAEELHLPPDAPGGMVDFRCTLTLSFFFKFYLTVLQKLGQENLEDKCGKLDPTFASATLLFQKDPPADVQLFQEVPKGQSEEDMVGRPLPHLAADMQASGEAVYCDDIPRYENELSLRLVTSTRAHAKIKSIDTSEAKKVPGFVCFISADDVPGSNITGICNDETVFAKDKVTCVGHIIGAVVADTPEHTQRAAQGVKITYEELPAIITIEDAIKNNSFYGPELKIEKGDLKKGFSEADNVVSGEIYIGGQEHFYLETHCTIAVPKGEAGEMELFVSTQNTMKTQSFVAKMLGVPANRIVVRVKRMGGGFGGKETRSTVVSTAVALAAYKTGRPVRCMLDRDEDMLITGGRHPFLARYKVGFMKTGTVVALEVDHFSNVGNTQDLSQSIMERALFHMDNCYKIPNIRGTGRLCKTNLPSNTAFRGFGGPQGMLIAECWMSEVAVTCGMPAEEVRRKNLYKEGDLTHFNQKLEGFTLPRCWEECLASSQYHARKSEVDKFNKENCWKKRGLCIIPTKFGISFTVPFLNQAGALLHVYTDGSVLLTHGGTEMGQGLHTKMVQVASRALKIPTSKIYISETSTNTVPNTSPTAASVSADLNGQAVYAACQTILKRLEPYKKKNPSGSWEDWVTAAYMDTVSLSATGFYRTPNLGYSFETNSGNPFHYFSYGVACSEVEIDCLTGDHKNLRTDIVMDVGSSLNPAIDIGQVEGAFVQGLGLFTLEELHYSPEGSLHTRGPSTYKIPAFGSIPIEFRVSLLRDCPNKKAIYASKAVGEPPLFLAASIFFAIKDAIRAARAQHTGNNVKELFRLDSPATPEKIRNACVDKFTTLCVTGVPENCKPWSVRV
Assay: Xanthine oxidase inhibitory activity, 96 well plate, kinetic reading at 295 nm
Assay type: biochemical
Conditions: compound concentration 0.1 μM
True means recorded PERCENT XANTHINE OXIDASE INHIBITION is 40% or above; False means it is below 40%.

Record "O=C(O)Cc1cccc(NC(=O)c2ccc(-c3nnn[nH]3)cc2)c1" ; criterion: PERCENT XANTHINE OXIDASE INHIBITION no lower than 40%. Met? False

API: above_or_equal(metric=PERCENT XANTHINE OXIDASE INHIBITION, cutoff=40%) for item "O=C(NCC1CCCCC1)c1ccc(-c2nnn[nH]2)cc1" False

For this compound, is measured PERCENT XANTHINE OXIDASE INHIBITION 40% or higher? "O=C(OCc1ccc(Br)cc1)c1ccc(-c2nnn[nH]2)cc1" True

API: above_or_equal(metric=PERCENT XANTHINE OXIDASE INHIBITION, cutoff=40%) for item "CC(C)COc1ccc(-c2nn[nH]n2)cc1" True
